Cited source for all entries: PubChem BioAssay AID694

- target.or.system: Estrogen receptor (Homo sapiens)
- assay.explanation: blockers of coactivator recruitment to ERα – biochemical, LOPAC library, TR-FRET, primary screen (AID 694);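 also: receptor was agonist-bound with estradiol present during the assay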
- recorded.conditions: TR-FRET ERalpha-coactivator peptide binding, at 45 µM, stronger effect = higher value
About 25 (2%) of roughly 1,300 compounds were called active. The list comes from a sample in which actives are over-represented; it also holds close analogues and randomly drawn compounds.
measured.attribute: inhibition (%)
API: value field is a number in %; no unit string.

# query: inhibition of entry Cc1cccc(C)c1NC(=O)C[N+](C)(C)C
0.37

# query: inhibition of entry COc1cc2c(cc1O)CC[C@@H]1[C@@H]2CC[C@]2(C)[C@@H](O)CC[C@@H]12
1.97

# query: inhibition of entry COc1cc2c(CCNC(C)=O)c[nH]c2cc1O
-5.77

# query: inhibition of entry COc1cc(=O)n(C)c2c(OCC(O)C(C)(C)O)cccc12 (configuration not stated)
-4.43

# query: inhibition of entry CN(C)CCOC(c1ccccc1)c1ccccc1
0

# query: inhibition of entry CN1CCc2cc(Cl)c(O)cc2[C@@H](c2ccccc2)C1
1.68

# query: inhibition of entry OCCN1CCN(CC/C=C2/c3ccccc3Sc3ccc(C(F)(F)F)cc32)CC1
3.87

# query: inhibition of entry Oc1ccc(-c2nc(-c3ccc(F)cc3)c(-c3ccncc3)[nH]2)cc1
-3.04

# query: inhibition of entry NCCCS(=O)(=O)O
-5.28

# query: inhibition of entry COc1ccccc1N1CCN(CCCNc2c(C)c(=O)n(C)c(=O)n2C)CC1
-0.24

# query: inhibition of entry O=C(Cc1ccc(Cl)c(Cl)c1)OCCN1CCCC1
-23.1

# query: inhibition of entry OC[C@H]1O[C@@H](n2cnc3c(NC4CCCC4)ncnc32)C(O)[C@H]1O (some centres not stated)
-0.88

* * *

Exercise: state measured inhibition for each of the compounds provided.
- target.or.system: Estrogen receptor (Homo sapiens) (UniProt P03372)
- Sequence (P03372 whole entry, looked up): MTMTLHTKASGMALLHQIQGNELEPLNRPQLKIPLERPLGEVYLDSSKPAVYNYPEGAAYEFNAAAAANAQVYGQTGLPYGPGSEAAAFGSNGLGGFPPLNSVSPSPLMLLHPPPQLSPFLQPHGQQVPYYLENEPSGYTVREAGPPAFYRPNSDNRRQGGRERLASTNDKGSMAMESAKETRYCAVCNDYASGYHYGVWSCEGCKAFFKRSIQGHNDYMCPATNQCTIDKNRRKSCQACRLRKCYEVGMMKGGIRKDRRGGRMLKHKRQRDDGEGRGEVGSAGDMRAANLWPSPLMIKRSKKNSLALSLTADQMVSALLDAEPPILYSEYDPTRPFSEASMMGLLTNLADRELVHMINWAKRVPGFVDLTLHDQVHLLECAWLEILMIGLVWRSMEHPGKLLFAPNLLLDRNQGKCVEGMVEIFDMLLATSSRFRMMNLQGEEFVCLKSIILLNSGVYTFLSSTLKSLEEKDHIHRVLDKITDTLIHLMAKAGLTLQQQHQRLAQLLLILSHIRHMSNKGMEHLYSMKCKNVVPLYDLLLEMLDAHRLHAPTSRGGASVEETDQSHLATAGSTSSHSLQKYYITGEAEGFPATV
- assay.explanation: blockers of coactivator recruitment to ERα – biochemical, LOPAC library, TR-FRET, primary screen (AID 694);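 also: receptor was agonist-bound with estradiol present during the assay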
- recorded.conditions: TR-FRET ERalpha-coactivator peptide binding, inhibition, at 15 µM, stronger effect = higher value
About 25 (2%) of roughly 1,300 compounds were called active. This excerpt belongs to a sample that is enriched for actives.
API: value field is a number in %; no unit string.

# query: inhibition of entry NC(=S)NCCCC(N)C(=O)O (stereo unspecified)
3.62

# query: inhibition of entry Cc1cc(C)c(NC(=O)C[C@H](CC(=O)O)c2cccc3ccccc23)c(C(=O)N2CCC3(CCCC3)CC2)c1
53

# query: inhibition of entry Cc1cccc(C)c1NC(=O)C[N+](C)(C)C
-1.43

# query: inhibition of entry COc1ccccc1N1CCN(CCN(C(=O)c2ccc(F)cc2)c2ccccn2)CC1
1.39

# query: inhibition of entry Cc1nc(N=Nc2cc(S(=O)(=O)O)c3cc([N+](=O)[O-])cc(S(=O)(=O)O)c3c2)c(COP(=O)(O)O)c(C=O)c1O
46.2

# query: inhibition of entry NC(N)=N[C@@H](CCC(=O)O)C(=O)O
5.9

# query: inhibition of entry Cc1ccccc1CNc1ncnc2c1ncn2C1OC(CO)C(O)C1O (stereo unspecified)
-1.9

# query: inhibition of entry O=c1cc(O)cc(/C=C/c2ccc(O)c(O)c2)o1
4.2

# query: inhibition of entry O=C(O)CCC(NC(=O)c1ccccc1C(=O)O)C(=O)O (stereo unspecified)
0.4

# query: inhibition of entry Oc1ccc(-c2nc(-c3ccc(F)cc3)c(-c3ccncc3)[nH]2)cc1
-1.6

# query: inhibition of entry CC(=O)O[C@H]1CC2(C)[C@@H](C[C@@H](O)[C@H]3[C@@]4(C)CC[C@@H](O)[C@@H](C)[C@@H]4CC[C@@]32C)C1=C(CCC=C(C)C)C(=O)O (stereo partly specified)
14.2

# query: inhibition of entry CCCn1c(=O)c2c(ncn2C)n(CCC)c1=O
-1.66

# query: inhibition of entry NC(CO)C(=O)NNCc1ccc(O)c(O)c1O (stereo unspecified)
63.1

# query: inhibition of entry NC(N)=NCCCCN=C(N)N
22.8

# query: inhibition of entry NCCC(=O)NCCc1cnc[nH]1
2.24

# query: inhibition of entry O=Nc1ccc2oc(=O)ccc2c1
0.59

* * *

Exercise: state measured inhibition for each of the molecules provided.
- target.or.system: Estrogen receptor (Homo sapiens) (UniProt P03372)
- assay.explanation: blockers of coactivator recruitment to ERα – biochemical, LOPAC library, TR-FRET, primary screen (AID 694);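 also: receptor was agonist-bound with estradiol present during the assay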
- recorded.conditions: TR-FRET ERalpha-coactivator peptide binding, inhibition, at 15 µM, stronger effect = higher value
Screen size: about 1,300 compounds; about 25 (2%) were called active. This excerpt belongs to a sample that is enriched for actives.
API: value field is a number in %; no unit string.

# query: inhibition of entry OC[C@H]1O[C@@H](n2cnc3c(NC4CCCCC4)ncnc32)[C@H](O)[C@@H]1O
-1.34

# query: inhibition of entry Nc1nc(SCc2ccc([N+](=O)[O-])cc2)c2ncn([C@@H]3O[C@H](CO)[C@H](O)C3O)c2n1 (some centres not stated)
-4.91

# query: inhibition of entry Nc1ncnc2c1ncn2[C@@H]1O[C@H](C(=O)NC2CC2)[C@H](O)C1O (some centres not stated)
-0.92

# query: inhibition of entry CC(C)C[C@H](NC(=O)[C@@H](O)[C@H](N)Cc1ccccc1)C(=O)O
0.08

# query: inhibition of entry Nc1ccc(N2C(=O)c3ccccc3C2=O)c(Cl)c1
-3.36

# query: inhibition of entry O=C(Nc1cccc(C(=O)Nc2ccc(S(=O)(=O)O)c3cc(S(=O)(=O)O)cc(S(=O)(=O)O)c23)c1)Nc1cccc(C(=O)Nc2ccc(S(=O)(=O)O)c3cc(S(=O)(=O)O)cc(S(=O)(=O)O)c23)c1
-2.37

# query: inhibition of entry C[C@]12CCC(=O)C=C1CC[C@@H]1[C@@H]2[C@@H](O)C[C@@]2(C)[C@H]1CC[C@]2(O)C(=O)COC(=O)CCC(=O)O
1.7

# query: inhibition of entry O=C(O)C1=CC(=C(c2ccc(O)c(C(=O)O)c2)c2ccc(O)c(C(=O)O)c2)C=CC1=O
76

# query: inhibition of entry CC[N+](C)(C)Cc1ccccc1Br
-2.6

# query: inhibition of entry Cn1cc(C(F)(F)F)nc1-c1ccc(OCC(O)CNCCOc2ccc(O)c(C(N)=O)c2)cc1 (configuration not stated)
-6.05

# query: inhibition of entry CC(C)C[C@H](NC(=O)[C@H](O)[C@H](N)Cc1ccccc1)C(=O)O
-0.07

# query: inhibition of entry C=Cc1c(C)c2cc3[nH]c(cc4nc(cc5nc(cc1[nH]2)C(C)=C5CCC(=O)O)C(CCC(=O)O)=C4C)c(C)c3C=C
73.7

# query: inhibition of entry C=CC[C@H](N)C(=O)O
-5.06

# query: inhibition of entry Nc1nc(OCc2ccccc2)c2[nH]cnc2n1
-5.45

# query: inhibition of entry O=S(=O)(c1cccc2c(I)cccc12)N1CCCNCC1
3.12

# query: inhibition of entry C[C@@H](NC(=O)/C(C#N)=C/c1ccc(O)c(O)c1)c1ccccc1
3.07

# query: inhibition of entry CC(C)C1C2CCC(C2)C1N (configuration not stated)
-0.95

* * *

Exercise: state measured inhibition for each of the molecules provided.
- target.or.system: Estrogen receptor (Homo sapiens) (UniProt P03372)
- assay.explanation: blockers of coactivator recruitment to ERα – biochemical, LOPAC library, TR-FRET, primary screen (AID 694);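 also: receptor was agonist-bound with estradiol present during the assay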
- recorded.conditions: TR-FRET ERalpha-coactivator peptide binding, inhibition, at 15 µM, stronger effect = higher value
The whole screen tested about 1,300 compounds, of which about 25 (2%) were called active. This excerpt belongs to a sample that is enriched for actives.
API: value field is a number in %; no unit string.

# query: inhibition of entry OC[C@H]1O[C@@H](n2cnc3cncnc32)[C@H](O)[C@@H]1O
-1.71

# query: inhibition of entry N#CC(=C(\N)Sc1ccccc1N)/C(C#N)=C(/N)Sc1ccccc1N
-2.12

# query: inhibition of entry NCCNC(=O)c1ccc(Cl)cc1
0.74

# query: inhibition of entry Cc1c(C)c2c(c(C)c1O)CCC(C)(CN1CCN(c3cc(N4CCCC4)nc(N4CCCC4)n3)CC1)O2 (configuration not stated)
-0.19

# query: inhibition of entry OC[C@H]1O[C@@H](n2cnc3c(N[C@H]4CC5CCC4C5)ncnc32)[C@H](O)[C@@H]1O (some centres not stated)
-3.27

# query: inhibition of entry CCSC(=N)N
0.66

# query: inhibition of entry OCC1O[C@H](O)C(Cl)C(O)C1O (some centres not stated)
2.64
